The compounds listed here are annotated with their BTK_I_binding pIC50.
# Test System: unphosphorylated-BTK kinase domain (UP-BTK), GST-tagged human BTK (389-659aa) (Homo sapiens (Human), UniProt Q06187)
# Sequence (Q06187 389-659): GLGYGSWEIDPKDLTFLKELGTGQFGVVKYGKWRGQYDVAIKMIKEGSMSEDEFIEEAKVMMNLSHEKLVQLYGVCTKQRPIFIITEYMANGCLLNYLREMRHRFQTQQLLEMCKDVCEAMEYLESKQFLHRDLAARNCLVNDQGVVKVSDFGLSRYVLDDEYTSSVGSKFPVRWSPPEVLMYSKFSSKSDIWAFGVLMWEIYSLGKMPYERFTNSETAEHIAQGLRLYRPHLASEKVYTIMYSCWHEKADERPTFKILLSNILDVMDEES
# Procedure Summary: BTK kinase Lanthascreen binding assay
# Condition Set: unphosphorylated-BTK kinase domain, 50 nM Tracer 236, 60 minutes; pIC50 = negative log of the IC50 in molar

Compound	Censoring Operator	BTK_I_binding pIC50
C=CC(=O)N1CCC[C@@H](NC(=O)c2sc3nccc4c3c2NC(=O)N4c2cccc(-c3ccc(C)cc3)c2)C1	=	7.5
C=CC(=O)N1CC[C@@H](NC(=O)c2sc3nccc4c3c2NC(=O)N4c2nnc(Oc3ccccc3)cc2C)C1	<	5
C=CC(=O)N1CCC[C@@H](NC(=O)c2sc3nccc4c3c2NC(=O)N4c2cccc(-c3cccc(F)c3)c2)C1	=	8.1
Cc1cc(Oc2ccccc2)ccc1N1C(=O)Nc2c(C(=O)N[C@@H]3CNC(=O)C3)sc3nccc1c23 (single isomer, unassigned) [Example 469]	=	7.1
CN(C)C/C=C/C(=O)N1CCC[C@@H](NC(=O)c2sc3nccc4c3c2NC(=O)N4c2ccc(Oc3ccccc3)cc2)C1	=	7.3
Cc1cc(Oc2ccccc2)c(F)cc1N1C(=O)Nc2c(C(=O)N[C@@H]3CCCOC3)sc3nccc1c23	=	6.0
C=CC(=O)N1CCC[C@@H](NC(=O)c2sc3nccc4c3c2NC(=O)N4c2cccc(CCC)c2)C1	=	7.5
C=CC(=O)N1CCC[C@@H](NC(=O)c2sc3nccc4c3c2NC(=O)N4c2ccc(Oc3ccccc3)nc2)C1	=	7.9
Cc1cc(Oc2ccccc2)ccc1N1C(=O)Nc2c(C(=O)N[C@@H]3CCCN(C(=O)/C(C#N)=C/C4(C)COC4)C3)sc3nccc1c23 (single isomer, unassigned) [Example 509]	=	7.9
Cc1ccccc1-c1cccc(N2C(=O)Nc3c(C(=O)N[C@@H]4CCCNC4)sc4nccc2c34)c1	=	6.7
C=CC(=O)N1CC[C@@H](C(=O)Nc2sc3nccc4c3c2NC(=O)N4c2ccc(Oc3ccccc3)cc2C)C1	=	6.9
Cc1cc(Oc2ccccc2)ccc1N1C(=O)Nc2c(C(=O)N[C@@H]3CCN(C(=O)CN(C)C)C3)sc3nccc1c23	=	7.1
O=C(N[C@@H]1CCCNC1)c1sc2nccc3c2c1NC(=O)N3Cc1ccc(Oc2ccccc2)cc1	<	5
C=CC(=O)N1CCC[C@@H](NC(=O)c2sc3nccc4c3c2NC(=O)N4c2cccc(-c3ccccc3Cl)c2)C1	=	8.0

The reported measurements were obtained from patent US10800792B2.
